- assayed-target: DPPS; decaprenyl diphosphate synthase (Homo sapiens, UniProt Q5T2R2)
- Sequence (Q5T2R2 whole entry): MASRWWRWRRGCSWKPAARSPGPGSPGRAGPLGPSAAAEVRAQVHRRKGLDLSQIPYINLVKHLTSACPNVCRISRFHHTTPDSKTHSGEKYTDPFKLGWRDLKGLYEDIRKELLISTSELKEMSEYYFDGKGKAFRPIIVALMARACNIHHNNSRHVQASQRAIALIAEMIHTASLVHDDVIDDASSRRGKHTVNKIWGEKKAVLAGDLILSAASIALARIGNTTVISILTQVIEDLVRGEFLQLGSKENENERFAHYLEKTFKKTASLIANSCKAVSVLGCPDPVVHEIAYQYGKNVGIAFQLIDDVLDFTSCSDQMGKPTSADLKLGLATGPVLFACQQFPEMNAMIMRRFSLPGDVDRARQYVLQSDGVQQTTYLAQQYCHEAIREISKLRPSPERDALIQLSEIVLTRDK
- Sequence (Q86YH6 whole entry partner): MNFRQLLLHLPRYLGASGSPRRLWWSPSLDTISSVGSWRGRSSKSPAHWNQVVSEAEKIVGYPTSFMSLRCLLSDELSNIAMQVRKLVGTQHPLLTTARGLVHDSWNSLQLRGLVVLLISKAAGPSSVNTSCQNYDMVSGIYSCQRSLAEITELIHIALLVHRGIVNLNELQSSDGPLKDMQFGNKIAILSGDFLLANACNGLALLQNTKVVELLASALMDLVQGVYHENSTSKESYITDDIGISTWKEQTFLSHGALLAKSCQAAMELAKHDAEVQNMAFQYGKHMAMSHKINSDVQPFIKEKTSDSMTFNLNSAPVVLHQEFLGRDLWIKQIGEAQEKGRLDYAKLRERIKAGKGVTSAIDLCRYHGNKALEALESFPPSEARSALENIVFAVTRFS
- experimental-protocol: DPPS inhibition assay
recorded-endpoint: IC50 (µM)
Please respond with the number in µM and leave the unit unwritten.

Read the entry O=P(O)(O)C(O)(Cn1ccnc1)P(=O)(O)O [zoledronate] and write its reported IC50.
5.5

Data provenance: paper PMC2819003
